pIC50 values for the compounds below.
TARGET: human TLR8 (Homo sapiens, UniProt Q9NR97)
Sequence (Q9NR97 27-1041): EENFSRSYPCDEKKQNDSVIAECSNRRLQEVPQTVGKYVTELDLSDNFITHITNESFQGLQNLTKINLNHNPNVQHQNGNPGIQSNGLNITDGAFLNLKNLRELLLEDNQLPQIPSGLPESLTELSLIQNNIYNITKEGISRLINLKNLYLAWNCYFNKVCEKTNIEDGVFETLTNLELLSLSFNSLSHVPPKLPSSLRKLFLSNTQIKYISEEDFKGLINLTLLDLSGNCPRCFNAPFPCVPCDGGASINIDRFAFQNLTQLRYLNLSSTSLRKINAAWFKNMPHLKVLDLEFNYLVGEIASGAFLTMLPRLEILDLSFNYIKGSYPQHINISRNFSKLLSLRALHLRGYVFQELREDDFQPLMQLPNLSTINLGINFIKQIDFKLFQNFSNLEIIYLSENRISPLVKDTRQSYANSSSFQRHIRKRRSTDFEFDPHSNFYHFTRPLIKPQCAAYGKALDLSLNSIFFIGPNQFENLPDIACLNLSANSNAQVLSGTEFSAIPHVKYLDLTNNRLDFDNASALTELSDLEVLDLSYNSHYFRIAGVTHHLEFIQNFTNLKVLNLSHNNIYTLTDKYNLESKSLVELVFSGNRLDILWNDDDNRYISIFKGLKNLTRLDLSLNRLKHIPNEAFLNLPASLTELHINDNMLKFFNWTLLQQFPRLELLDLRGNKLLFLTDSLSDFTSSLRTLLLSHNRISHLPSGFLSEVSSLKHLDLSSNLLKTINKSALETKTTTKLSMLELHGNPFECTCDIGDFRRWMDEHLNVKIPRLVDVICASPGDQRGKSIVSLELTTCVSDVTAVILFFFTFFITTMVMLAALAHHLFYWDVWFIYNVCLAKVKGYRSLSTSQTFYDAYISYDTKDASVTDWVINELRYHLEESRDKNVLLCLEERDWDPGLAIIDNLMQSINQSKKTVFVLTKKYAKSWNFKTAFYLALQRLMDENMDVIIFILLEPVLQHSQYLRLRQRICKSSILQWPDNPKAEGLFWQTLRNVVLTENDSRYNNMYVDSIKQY
# reply with the number alone; pIC50 is -log10 of concentration in mol/L

{"COMPOUND": "[2H]c1ccc2c(N3C[C@@H]4CN(c5ncc(N6C[C@@H](N)[C@@H](OC)C6)cc5C)CCN4[C@H](C)C3)ccc(C#N)c2n1", "TARGET": "human TLR8 (Homo sapiens, UniProt Q9NR97)", "pIC50": 8.30}
{"COMPOUND": "[2H]c1ccc2c(N3C[C@@H]4CN(Cc5ccc(N6C[C@H]7NCCO[C@@H]7C6)nc5C)CCN4[C@H](C)C3)ccc(C#N)c2n1", "TARGET": "human TLR8 (Homo sapiens, UniProt Q9NR97)", "pIC50": 8.00}
{"COMPOUND": "[2H]c1ccc2c(N3C[C@@H]4CN(CCc5ccnc(N6C[C@@H](N)[C@@H](F)C6)c5)CCN4[C@H](C)C3)ccc(C#N)c2n1", "TARGET": "human TLR8 (Homo sapiens, UniProt Q9NR97)", "pIC50": 7.36}
{"COMPOUND": "C[C@@H]1CN(c2ccc(C#N)n3ncc(F)c23)C[C@@H]2CN(Cc3ccc4c(c3)CNCC4)CCN21", "TARGET": "human TLR8 (Homo sapiens, UniProt Q9NR97)", "pIC50": 7.28}
{"COMPOUND": "[2H]c1ccc2c(N3C[C@@H]4CN(c5ncc(C(=O)N6CC7(CN(C)C7)C6)cc5C)CCN4[C@H](C)C3)ccc(C#N)c2n1", "TARGET": "human TLR8 (Homo sapiens, UniProt Q9NR97)", "pIC50": 8.70}

Value lookup for pIC50; key = "C[C@@H]1CN(c2ccc(C#N)c3ncccc23)C[C@@H]2CN(CCc3cccc(N4CCN[C@@H](C)C4)n3)CCN21"
7.28

Value lookup for pIC50; key = "C[C@@H]1CN(c2ccc(C#N)c3ncccc23)C[C@@H]2CN(c3ccnc(N4CCOC[C@@H](N)C4)c3)CCN21"
7.70

Value lookup for pIC50; key = "[2H]c1ccc2c(N3C[C@@H]4CN(c5ncc(N6C[C@@H]7C[C@H]6CN7)cc5C)CCN4[C@@H](C)C3)ccc(C#N)c2n1"
8.30

Value lookup for pIC50; key = "C[C@@H]1CN(c2ccc(C#N)c3ncccc23)C[C@@H]2CN(c3nccc(N4CCNCC4)n3)CCN21"
7.68
